# System: LSC-enriched leukemia cells (MLL-AF9)
# Test Name: Leukemia coculture assay on primary MSC stroma (cobblestoning readout)
# Assay type: cell-based, murine
# Condition Summary: Mus musculus, MLL-AF9, LSCs on primary MSC stroma, 8-point dose; read-out: Leukemia IC50
Reported Metric: IC50 (nM)

Before answering, review these 3 worked examples.
[
  {
    "Compound": "CCOc1ccccc1NC(=O)C(C)Oc1ccc(OC)cc1 (stereo not drawn)",
    "Experimental System": "LSC-enriched leukemia cells (MLL-AF9)",
    "Measured Number": 1420
  },
  {
    "Compound": "COc1cc2c(cc1OC)-c1c(C#N)c(-c3ccc(C)cc3)c(C(=O)c3cccs3)n1CC2",
    "Experimental System": "LSC-enriched leukemia cells (MLL-AF9)",
    "Measured Number": 149
  },
  {
    "Compound": "O=C(c1ccccc1)c1cc[n+](Cc2ccccn2)cc1",
    "Experimental System": "LSC-enriched leukemia cells (MLL-AF9)",
    "Measured Number": 813
  }
]

1. COc1cc2c(cc1O)CC[C@@H]1[C@@H]2CC[C@]2(C)[C@@H](O)CC[C@@H]12
2. C[C@@H]1CN([C@@H](C)CO)C(=O)c2cccc(NC(=O)Nc3ccccc3)c2O[C@@H]1CN(C)Cc1ccc(C(=O)Nc2ccccc2N)cc1
Task: // returns 1 or 2 , whichever has the lower IC50 To answer, give the label that identifies your chosen option.
Output: 1
(1: 77 nM, 2: 2140 nM)

1. COC(=O)Nc1nc2cc(SC(C)C)ccc2[nH]1
2. C[C@@H]1CN([C@@H](C)CO)C(=O)c2cccc(NC(=O)C3CCCCC3)c2O[C@@H]1CN(C)Cc1ccc(C(=O)Nc2ccccc2N)cc1
Task: // returns 1 or 2 , whichever has the lower IC50 To answer, give the label that identifies your chosen option.
Output: 1
(1: 466 nM, 2: 699 nM)
